# credit: ChEMBL document CHEMBL4825702

Test: Half life in CD-1 mouse at 2 mg/kg, iv measured up to 24 hrs by LC-MS/MS
Assay type: ADME, organism-based
Conditions: in vivo
endpoint-name: half-life (min)
// return numeric value only (unit: min, not printed)

Fill in half-life for record `Cl.Nc1cccc2c(S(=O)(=O)NCc3ccccc3)cccc12`
39.6

====

Assay: AUC in CD-1 mouse at 2 mg/kg, ip measured up to 24 hrs by LC-MS/MS
Type: ADME, organism-based
Set-up: route intraperitoneal, dose 2 mg/kg, time <=24
Conditions: in vivo
endpoint-name: AUC at 24 h

# return recorded AUC at 24 h for input `Cl.Nc1cccc2c(S(=O)(=O)NCc3ccccc3)cccc12`
150 ng·h/mL

====

Test: Clearance in CD-1 mouse at 2 mg/kg, iv measured up to 24 hrs by LC-MS/MS
Type: ADME, organism-based
Settings: in vivo
endpoint-name: clearance (mL/min/kg)
Express it in mL/min/kg; write the number only.

Please give measured clearance of the following entry: `Cl.Nc1cccc2c(S(=O)(=O)NCc3ccccc3)cccc12`
163

====

Experiment: Tmax in CD-1 mouse at 2 mg/kg, ip measured up to 24 hrs by LC-MS/MS
Assay type: ADME, organism-based
Settings: in vivo
endpoint-name: Tmax (min)
The answer is to be given in min; state only the numeric part.

Return Tmax (reported value) for this compound: `Cl.Nc1cccc2c(S(=O)(=O)NCc3ccccc3)cccc12`
4.98

====

Experiment: MRT in CD-1 mouse at 2 mg/kg, iv measured up to 24 hrs by LC-MS/MS
Assay type: ADME, organism-based
Conditions: in vivo
endpoint-name: MRT (min)
The figure you give is taken to be in min; do not add the unit.

Specify reported MRT for the compound shown: `Cl.Nc1cccc2c(S(=O)(=O)NCc3ccccc3)cccc12`
23.8

====

Reported IC50 values for the following compounds.
Molecular target: Histone-lysine N-methyltransferase NSD2 (Homo sapiens, UniProt O96028)
Sequence (O96028 whole entry): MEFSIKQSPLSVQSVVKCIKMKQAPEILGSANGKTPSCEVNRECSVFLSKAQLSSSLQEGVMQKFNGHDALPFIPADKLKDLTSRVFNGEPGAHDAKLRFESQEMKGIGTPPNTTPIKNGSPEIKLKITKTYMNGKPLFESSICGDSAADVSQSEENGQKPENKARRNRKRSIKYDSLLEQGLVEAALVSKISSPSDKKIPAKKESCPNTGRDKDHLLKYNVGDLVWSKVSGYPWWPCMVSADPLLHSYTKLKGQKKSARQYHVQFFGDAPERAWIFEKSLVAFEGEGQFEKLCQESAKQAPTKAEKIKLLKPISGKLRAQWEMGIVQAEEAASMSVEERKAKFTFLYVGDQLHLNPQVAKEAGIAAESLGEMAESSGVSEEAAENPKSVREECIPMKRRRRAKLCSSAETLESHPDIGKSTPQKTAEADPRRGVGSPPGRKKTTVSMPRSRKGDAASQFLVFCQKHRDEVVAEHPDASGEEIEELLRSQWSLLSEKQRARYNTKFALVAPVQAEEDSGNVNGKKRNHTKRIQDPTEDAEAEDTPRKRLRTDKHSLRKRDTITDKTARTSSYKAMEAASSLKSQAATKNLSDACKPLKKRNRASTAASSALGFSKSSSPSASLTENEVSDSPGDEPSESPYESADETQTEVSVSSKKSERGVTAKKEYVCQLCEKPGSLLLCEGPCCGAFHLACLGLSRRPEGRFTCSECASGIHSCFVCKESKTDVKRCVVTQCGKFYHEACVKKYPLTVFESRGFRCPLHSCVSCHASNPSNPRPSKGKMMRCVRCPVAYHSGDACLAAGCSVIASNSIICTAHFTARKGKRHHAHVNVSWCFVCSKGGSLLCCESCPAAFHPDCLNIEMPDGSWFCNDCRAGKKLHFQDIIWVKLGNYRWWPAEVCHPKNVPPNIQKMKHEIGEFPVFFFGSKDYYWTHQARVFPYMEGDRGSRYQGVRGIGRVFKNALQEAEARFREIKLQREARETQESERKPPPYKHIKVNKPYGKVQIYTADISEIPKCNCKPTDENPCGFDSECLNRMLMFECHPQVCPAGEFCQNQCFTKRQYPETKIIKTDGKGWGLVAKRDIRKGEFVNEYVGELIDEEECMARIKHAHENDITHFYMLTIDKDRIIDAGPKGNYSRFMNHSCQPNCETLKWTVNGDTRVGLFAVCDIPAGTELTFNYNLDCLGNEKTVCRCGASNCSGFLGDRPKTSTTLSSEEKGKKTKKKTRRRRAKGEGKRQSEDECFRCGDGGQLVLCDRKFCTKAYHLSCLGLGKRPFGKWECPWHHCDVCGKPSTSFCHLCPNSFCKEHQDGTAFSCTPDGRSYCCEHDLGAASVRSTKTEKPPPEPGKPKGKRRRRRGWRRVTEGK
Assay: Inhibition of NSD2 (unknown origin)

Reference set (2 entries):
[
  {
    "compound": "NNc1nc2ccccc2nc1S",
    "IC50": "3 µM"
  },
  {
    "compound": "Nc1ncnc2c1ncn2[C@@H]1O[C@H](CC(N)CC[C@H](N)C(=O)O)[C@@H](O)[C@H]1O (stereo partly drawn)",
    "IC50": "26 µM"
  }
]

Now turn to the next compound.
Report value: IC50, system: Histone-lysine N-methyltransferase NSD2 (Homo sapiens, UniProt O96028), compound: `O=C1O[C@@H](C(=O)N2CCN(Cc3nc4sc5c(c4c(=O)[nH]3)CCCC5)CC2)Cc2ccccc21`
11.2 µM

====

Target: Histone-lysine N-methyltransferase NSD2 (Homo sapiens)
Test: Inhibition of human NSD2-SET using histone H3.1 as substrate incubated for 1 hr by Western blot analysis
endpoint-name: IC50 (µM)
Number only, in µM; omit the unit.

Give IC50 for `COc1cc2nc(N3CCN(C)CC3)nc(NC3CCN(Cc4ccccc4)CC3)c2cc1OC` tested on Histone-lysine N-methyltransferase NSD2 (Homo sapiens).
41

====

Target: Histone-lysine N-methyltransferase, H3 lysine-36 specific (Homo sapiens)
Sequence (Q96L73 whole entry): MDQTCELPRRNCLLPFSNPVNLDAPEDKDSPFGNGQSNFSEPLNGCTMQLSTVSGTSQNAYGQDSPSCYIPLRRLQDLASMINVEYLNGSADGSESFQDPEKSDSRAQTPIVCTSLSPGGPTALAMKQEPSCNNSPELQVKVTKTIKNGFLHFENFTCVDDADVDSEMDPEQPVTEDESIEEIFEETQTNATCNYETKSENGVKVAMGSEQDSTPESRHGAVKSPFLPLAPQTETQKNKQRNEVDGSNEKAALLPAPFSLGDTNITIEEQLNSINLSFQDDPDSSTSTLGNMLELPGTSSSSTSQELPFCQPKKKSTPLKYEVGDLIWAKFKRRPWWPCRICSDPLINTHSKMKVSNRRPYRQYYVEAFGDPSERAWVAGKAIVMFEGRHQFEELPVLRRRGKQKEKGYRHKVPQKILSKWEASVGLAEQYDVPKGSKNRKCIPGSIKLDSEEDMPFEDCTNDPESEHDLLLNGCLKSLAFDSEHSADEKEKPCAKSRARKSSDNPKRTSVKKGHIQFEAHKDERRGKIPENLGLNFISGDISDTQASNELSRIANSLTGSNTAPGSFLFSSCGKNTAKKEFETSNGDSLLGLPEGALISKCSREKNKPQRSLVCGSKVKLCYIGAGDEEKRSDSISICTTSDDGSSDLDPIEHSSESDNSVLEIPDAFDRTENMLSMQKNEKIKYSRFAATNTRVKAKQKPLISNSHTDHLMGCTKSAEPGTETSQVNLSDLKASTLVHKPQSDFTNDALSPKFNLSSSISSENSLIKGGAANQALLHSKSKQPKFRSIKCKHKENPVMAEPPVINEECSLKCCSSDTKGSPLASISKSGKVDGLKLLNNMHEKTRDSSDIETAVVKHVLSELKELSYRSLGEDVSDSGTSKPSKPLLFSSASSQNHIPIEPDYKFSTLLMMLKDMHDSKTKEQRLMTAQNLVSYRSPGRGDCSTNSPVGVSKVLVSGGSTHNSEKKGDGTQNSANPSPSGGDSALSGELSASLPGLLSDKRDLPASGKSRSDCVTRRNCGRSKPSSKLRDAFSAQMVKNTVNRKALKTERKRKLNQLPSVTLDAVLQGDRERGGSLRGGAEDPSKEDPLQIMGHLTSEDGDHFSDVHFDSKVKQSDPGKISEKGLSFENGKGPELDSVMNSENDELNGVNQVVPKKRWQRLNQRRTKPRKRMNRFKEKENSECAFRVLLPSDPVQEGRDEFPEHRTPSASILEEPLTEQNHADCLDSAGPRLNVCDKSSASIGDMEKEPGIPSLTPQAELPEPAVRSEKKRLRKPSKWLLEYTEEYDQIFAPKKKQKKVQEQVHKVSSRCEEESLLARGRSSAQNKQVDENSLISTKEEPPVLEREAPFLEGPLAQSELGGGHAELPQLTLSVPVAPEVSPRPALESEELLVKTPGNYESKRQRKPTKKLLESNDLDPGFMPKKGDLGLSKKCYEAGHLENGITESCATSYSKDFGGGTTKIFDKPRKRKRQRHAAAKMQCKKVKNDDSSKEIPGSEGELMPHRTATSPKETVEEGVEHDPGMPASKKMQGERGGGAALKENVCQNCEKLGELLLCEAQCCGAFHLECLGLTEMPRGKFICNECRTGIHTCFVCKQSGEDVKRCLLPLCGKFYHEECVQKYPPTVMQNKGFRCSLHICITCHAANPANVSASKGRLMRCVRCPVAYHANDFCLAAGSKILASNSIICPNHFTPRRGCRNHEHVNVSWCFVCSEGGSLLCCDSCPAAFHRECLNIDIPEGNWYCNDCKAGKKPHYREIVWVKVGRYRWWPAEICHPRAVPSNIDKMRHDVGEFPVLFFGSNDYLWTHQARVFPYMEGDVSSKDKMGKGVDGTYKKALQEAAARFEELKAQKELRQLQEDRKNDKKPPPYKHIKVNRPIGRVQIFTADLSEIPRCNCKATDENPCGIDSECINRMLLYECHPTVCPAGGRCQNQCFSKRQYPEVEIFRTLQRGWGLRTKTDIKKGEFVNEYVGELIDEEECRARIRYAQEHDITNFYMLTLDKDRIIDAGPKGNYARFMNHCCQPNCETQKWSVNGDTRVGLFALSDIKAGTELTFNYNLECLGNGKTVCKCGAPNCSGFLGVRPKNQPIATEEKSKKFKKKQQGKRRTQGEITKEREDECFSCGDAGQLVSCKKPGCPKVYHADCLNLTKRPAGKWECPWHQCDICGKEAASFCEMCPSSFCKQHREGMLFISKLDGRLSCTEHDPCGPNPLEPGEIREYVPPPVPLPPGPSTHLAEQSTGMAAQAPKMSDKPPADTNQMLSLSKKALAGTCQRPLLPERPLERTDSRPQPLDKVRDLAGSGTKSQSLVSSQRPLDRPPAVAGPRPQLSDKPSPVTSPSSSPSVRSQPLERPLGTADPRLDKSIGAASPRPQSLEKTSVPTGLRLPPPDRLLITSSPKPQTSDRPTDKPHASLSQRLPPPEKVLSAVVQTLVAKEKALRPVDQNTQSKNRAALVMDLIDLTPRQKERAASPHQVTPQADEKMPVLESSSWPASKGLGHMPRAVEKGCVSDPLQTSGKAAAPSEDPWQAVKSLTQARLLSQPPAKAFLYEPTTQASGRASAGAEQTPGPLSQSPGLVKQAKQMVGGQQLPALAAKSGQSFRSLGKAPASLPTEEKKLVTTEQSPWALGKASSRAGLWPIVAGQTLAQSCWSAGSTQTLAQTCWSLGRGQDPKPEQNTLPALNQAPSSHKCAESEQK
Assay: Inhibition of NSD1 (unknown origin) using SAM as substrate preincubated for 10 mins followed by substrate addition measured after 4 hrs by AlphaLISA method
endpoint-name: IC50

Given the molecule `Cl.Nc1cccc2c(S(=O)(=O)NCc3ccccc3)cccc12` , write its reported IC50.
> 20 µM
